All values here come from PubChem BioAssay.

- EXPERIMENTAL_DETAILS: reversal of MRP1-mediated doxorubicin resistance, pilot screen, H69AR cells, doxorubicin co-treatment (AID 601)
- CONDITION_DESCRIPTION: H69AR cells, CellTiter-Glo, 72 h; compound alone cytotoxicity; at 10 µM
READOUT_NAME: viability (%)
State just the number; it will be interpreted in %.

// below: answered molecules
{"MOLECULE": "Cn1c(SCc2nnc3n2CCCCC3)nc2ccccc21", "viability [%]": 98.2}
{"MOLECULE": "O=C(Cn1nc(C(F)(F)F)c2c1CCCC2)NCCN1CCOCC1", "viability [%]": 91.5}
{"MOLECULE": "COc1cccc(Cn2c(Oc3ccccc3)nc3c2c(=O)n(C)c(=O)n3C)c1", "viability [%]": 83.8}
{"MOLECULE": "CCOC(=O)C1CCCN(CCC(C)c2ccccc2)C1 (stereo not drawn)", "viability [%]": 95.7}

Given Cc1ccc(C2Nc3ccccc3-c3nc4ccccc4n32)o1 (stereo not drawn) , state its recorded viability. 38.3

Given CCOP(=O)(c1ccc(N(C)C)cc1)C(O)c1ccccc1OC (stereo not drawn) , state its recorded viability. 98.7

Given Cc1ccccc1CN1CCNC1=O , state its recorded viability. 90.8

Given O=C(Nc1ccc(F)cc1F)NC1CC(=O)N(Cc2ccccc2)C1 (stereo not drawn) , state its recorded viability. 95.1

###

- EXPERIMENTAL_DETAILS: reversal of MRP1-mediated doxorubicin resistance, pilot screen, H69AR cells, doxorubicin co-treatment (AID 601)
- CONDITION_DESCRIPTION: H69AR cells + 2 uM doxorubicin, CellTiter-Glo, 72 h; at 10 µM; stronger effect = higher value
READOUT_NAME: differential viability (reversal) (%)
State just the number; it will be interpreted in %.

{"COMPOUND": "N#CC1=C(N)SC(N)=C(C#N)C1CCc1ccccc1", "differential viability (reversal) [%]": -8.65}
{"COMPOUND": "CCOC(=O)C1CCCN(CCC(C)c2ccccc2)C1 (stereo not drawn)", "differential viability (reversal) [%]": 11.3}

Now for the compound whose differential viability (reversal) we want.
Given Cc1ccc2c(Cl)cc(Cl)c(OCc3c(C)noc3C)c2n1 , state its recorded differential viability (reversal). -0.21

###

- EXPERIMENTAL_DETAILS: growth suppression of yeast trafficking mutant, preliminary HTS, modulators of trafficking downstream of Golgi apparatus project, 1536-format plate, OD 615 nm (AID 637)
- CONDITION_DESCRIPTION: yeast transport mutant growth, absorbance 615 nm, 18 h; stronger effect = higher value
READOUT_NAME: inhibition (%)
State just the number; it will be interpreted in %.

// below: answered compounds
{"COMPOUND": "CCOc1cc(C2C(C#N)=C(N)OC(C)=C2C(C)=O)cc(Br)c1O (configuration not stated)", "UNIT_OF_MEASURE": "%", "inhibition": -6.83}
{"COMPOUND": "O=c1oc2ccccc2n1CCc1ccccc1", "UNIT_OF_MEASURE": "%", "inhibition": 0.98}
{"COMPOUND": "CCCOC(=O)c1ccc(-c2c(C)noc2-c2ccc(OC)cc2O)o1", "UNIT_OF_MEASURE": "%", "inhibition": -9.33}
{"COMPOUND": "Cc1cc(NC(=O)CN2CCC(O)(c3cccc(F)c3)CC2)no1", "UNIT_OF_MEASURE": "%", "inhibition": -6.83}
{"COMPOUND": "O=C(NC1=NCCS1)NC12CC3CC(CC(C3)C1)C2", "UNIT_OF_MEASURE": "%", "inhibition": 5.08}

Given O=C(CSc1nc2ncccc2[nH]1)Nc1ccc2c(c1)OCCO2 , state its recorded inhibition. -0.82

Given CC(=O)Nc1c(-c2ccc(F)cc2)nc2ccccn12 , state its recorded inhibition. 1
